test system: SmPutA; assay: Fluorescence-based thermal shift assay; assay type: binding, Sinorhizobium meliloti; details: compound at 62.5 mM; ligand-free SmPutA T1/2 40.2 °C
parameter.measured: ΔT1/2 (increase of midpoint of stability curve) (°C)
Quick reminder: number only, in °C, skip the unit.

Worked examples, 3 compounds total:
compound	reading.unit	result.number
O=C(O)[C@@H]1C[C@H](O)CN1 [CHLP, cis-4-hydroxy-L-proline]	°C	2.1
O=C(O)[C@@H]1C[C@@H](O)CN1 [THLP, trans-4-hydroxy-L-proline]	°C	2.9
O=C(O)[C@H]1C[C@@H](O)CN1 [CHDP, cis-4-hydroxy-D-proline]	°C	4.0

For the compound O=C(O)[C@H]1C[C@H](O)CN1 [THDP, trans-4-hydroxy-D-proline] , give its measured ΔT1/2 (increase of midpoint of stability curve) value. 5.6
